Source of measurements: the supplement of paper PMC7125110

B1: glmS ribozyme (parent)
chain: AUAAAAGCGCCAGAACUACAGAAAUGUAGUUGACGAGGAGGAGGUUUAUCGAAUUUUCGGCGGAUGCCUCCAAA

# Variants of: B1
# ASSAY INFO: kcat; higher = faster cleavage; RNA array
# CONDITION DETAILS: with glucosamine-6-phosphate
Variants at the floor of the assay were thinned out.
# label = bin(measured kcat), where bins are lower bin (below 0.0002 s⁻¹), middle bin (0.0002 s⁻¹ to below 0.0007 s⁻¹), upper bin (0.0007 s⁻¹ or more)

Check out these entries, answers already filled in.
          mutation_notation  assigned_class
0  C10U U47C U56G C68U U69A       lower bin
1                 A39C C70A       lower bin
2                      U57A      middle bin
3            C11U U65A C71U       lower bin
4                 G29C U57A       lower bin

Turning now to a further record.
Qu. For the record U46G C70A , report the class its kcat corresponds to.
Ans. middle bin
